Source listed as patent US5861395A.

- STUDY_TARGET: farnesyl protein transferase
- ASSAY_PROTOCOL: FPT IC50 (inhibition of farnesyl protein transferase, in vitro enzyme assay)
- Assay type: biochemical
- MEASUREMENT_CONDITIONS: Table 3
pIC50: −log10 of the molar value.
RECORDED_ENDPOINT: pIC50

Recorded pIC50, per entry:
[
  {
    "MOLECULE": "O=C(NC(=O)C(Cl)(Cl)Cl)O[C@H]1CC[C@@H](C(=O)N2CCC(CC(=O)N3CCC([C@H]4c5ncc(Br)cc5CCc5cc(Cl)cc(Br)c54)CC3)CC2)CC1 [Compound 93.0-B]",
    "pIC50": 8.24
  },
  {
    "MOLECULE": "O=C1C[C@@H](C(=O)N2CCC(CC(=O)N3CCC([C@H]4c5ncc(Br)cc5CCc5cc(Cl)cc(Br)c54)CC3)CC2)NC(=O)N1 [Compound 78.0-B]",
    "pIC50": 8.59
  },
  {
    "MOLECULE": "NC(=O)c1cncc(C(=O)N2CCC(CC(=O)N3CCC([C@H]4c5ncc(Br)cc5CCc5cc(Cl)cc(Br)c54)CC3)CC2)c1 [Compound 29.0-B]",
    "pIC50": 8.66
  },
  {
    "MOLECULE": "O=C(O)Cn1cccc1C(=O)N1CCC(CC(=O)N2CCC([C@H]3c4ncc(Br)cc4CCc4cc(Cl)cc(Br)c43)CC2)CC1 [Compound 62.0-B]",
    "pIC50": 8.55
  },
  {
    "MOLECULE": "O=C(CC1CCN(C(=O)c2cccnc2O)CC1)N1CCC([C@H]2c3ncc(Br)cc3CCc3cc(Cl)cc(Br)c32)CC1 [Compound 48.0-B]",
    "pIC50": 8.68
  }
]

P. O=C(O)c1cncc(C(=O)N2CCC(CC(=O)N3CCC([C@H]4c5ncc(Br)cc5CCc5cc(Cl)cc(Br)c54)CC3)CC2)c1 [Compound 25.0-B]
Q. CC(C)(C)OC(=O)Cn1cccc1C(=O)N1CCC(CC(=O)N2CCC([C@H]3c4ncc(Br)cc4CCc4cc(Cl)cc(Br)c43)CC2)CC1 [Compound 61.0-B]
[Q] Of P versus Q , which is the one with smaller reported pIC50? Indicate your choice by writing its label.
[A] Q

* * *

- STUDY_TARGET: farnesyl protein transferase
- ASSAY_PROTOCOL: FPT IC50 (inhibition of farnesyl protein transferase, in vitro enzyme assay)
- Format: biochemical
- MEASUREMENT_CONDITIONS: Table 2
RECORDED_ENDPOINT: IC50 (nM)

Recorded IC50, per entry:
[
  {
    "MOLECULE": "N=C(NS(N)(=O)=O)N1CCC(CC(=O)N2CCN(C3c4ccc(Cl)cc4CCc4cc(Br)cnc43)CC2)CC1 (stereo not shown)",
    "STUDY_TARGET": "farnesyl protein transferase",
    "IC50 (nM)": 120
  },
  {
    "MOLECULE": "N=C(NCc1cccnc1)N1CCC(CC(=O)N2CCC(C3c4ccc(Cl)c(Br)c4CCc4cc(Br)cnc43)CC2)CC1 (stereo not shown)",
    "STUDY_TARGET": "farnesyl protein transferase",
    "IC50 (nM)": 11
  },
  {
    "MOLECULE": "N=C(N)N1CCC(CC(=O)N2CCC(C3c4ccc(Cl)c(Br)c4CCc4cc(Br)cnc43)CC2)CC1 (stereo not shown)",
    "STUDY_TARGET": "farnesyl protein transferase",
    "IC50 (nM)": 23
  }
]

1. N#CN1CCC(CC(=O)N2CCC(C3c4ccc(Cl)c(Br)c4CCc4cc(Br)cnc43)CC2)CC1 (stereo not shown)
2. N#CN1CCC(CC(=O)N2CCN(C3c4ccc(Cl)cc4CCc4cc(Br)cnc43)CC2)CC1 (stereo not shown)
[Q] Of 1 versus 2 , which is the one with smaller reported IC50? Indicate your choice by writing its label.
[A] 1
(1: 7 nM, 2: 54.3 nM)

* * *

- STUDY_TARGET: farnesyl protein transferase
- ASSAY_PROTOCOL: FPT IC50 (inhibition of farnesyl protein transferase, in vitro enzyme assay)
- Format: biochemical
- MEASUREMENT_CONDITIONS: Table 3
pIC50: −log10 of the molar value.
RECORDED_ENDPOINT: pIC50

Recorded pIC50, per entry:
[
  {
    "COMPOUND_STRUCTURE": "Cc1noc(C)c1C(=O)N1CCC(CC(=O)N2CCC([C@H]3c4ncc(Br)cc4CCc4cc(Cl)cc(Br)c43)CC2)CC1",
    "pIC50": 8.40
  },
  {
    "COMPOUND_STRUCTURE": "O=CN1CCC(CC(=O)N2CCC([C@H]3c4ncc(Br)cc4CCc4cc(Cl)cc(Br)c43)CC2)CC1",
    "pIC50": 8.43
  },
  {
    "COMPOUND_STRUCTURE": "O=C(CC1CCN(C(=O)c2ccc[n+]([O-])c2)CC1)N1CCC([C@H]2c3ncc(Br)cc3CCc3cc(Cl)cc(Br)c32)CC1",
    "pIC50": 8.72
  },
  {
    "COMPOUND_STRUCTURE": "O=C(CC1CCN(C(=O)[C@H]2CC[C@@H](O)CC2)CC1)N1CCC([C@H]2c3ncc(Br)cc3CCc3cc(Cl)cc(Br)c32)CC1",
    "pIC50": 8.35
  },
  {
    "COMPOUND_STRUCTURE": "NC(=O)O[C@H]1CC[C@@H](C(=O)N2CCC(CC(=O)N3CCC([C@H]4c5ncc(Br)cc5CCc5cc(Cl)cc(Br)c54)CC3)CC2)CC1",
    "pIC50": 8.40
  }
]

a. NC(=O)Cn1cccc1C(=O)N1CCC(CC(=O)N2CCC([C@H]3c4ncc(Br)cc4CCc4cc(Cl)cc(Br)c43)CC2)CC1
b. O=C(CC1CCN(C(=O)c2ccoc2)CC1)N1CCC([C@H]2c3ncc(Br)cc3CCc3cc(Cl)cc(Br)c32)CC1
c. O=C1NC[C@@H](C(=O)N2CCC(CC(=O)N3CCC([C@H]4c5ncc(Br)cc5CCc5cc(Cl)cc(Br)c54)CC3)CC2)N1
[Q] // ranking: key=pIC50, reverse=True Returns: the labels arranged in the requested order.
[A] c, a, b

A. O=C(CC1CCN(C(=O)c2ccc(O)nc2)CC1)N1CCC([C@@H]2c3c(Br)cc(Cl)cc3CCc3cc(Br)c[n+]([O-])c32)CC1
B. CC(=O)O[C@H]1CC[C@@H](C(=O)N2CCC(CC(=O)N3CCC([C@H]4c5ncc(Br)cc5CCc5cc(Cl)cc(Br)c54)CC3)CC2)CC1
[Q] Of A versus B , which is the one with smaller reported pIC50? Indicate your choice by writing its label.
[A] B
(B: 8.14, A: 8.60)

A. O=C(CC1CCN(C(=O)c2ncccc2O)CC1)N1CCC([C@H]2c3ncc(Br)cc3CCc3cc(Cl)cc(Br)c32)CC1
B. O=C(CC1CCN(C(=O)c2cccn2Cc2ccccc2)CC1)N1CCC([C@H]2c3ncc(Br)cc3CCc3cc(Cl)cc(Br)c32)CC1
[Q] Of A versus B , which is the one with smaller reported pIC50? Indicate your choice by writing its label.
[A] A

1. CC(=O)N1CCC(CC(=O)N2CCC([C@H]3c4ncc(Br)cc4CCc4cc(Cl)cc(Br)c43)CC2)CC1
2. CCn1cccc1C(=O)N1CCC(CC(=O)N2CCC([C@H]3c4ncc(Br)cc4CCc4cc(Cl)cc(Br)c43)CC2)CC1
[Q] Of 1 and 2 , whose reported pIC50 is the larger number? Indicate your choice by writing its label.
[A] 1

* * *

- STUDY_TARGET: farnesyl protein transferase
- ASSAY_PROTOCOL: FPT IC50 (inhibition of farnesyl protein transferase, in vitro enzyme assay)
- Format: biochemical
- MEASUREMENT_CONDITIONS: Table 3
RECORDED_ENDPOINT: IC50 (nM)

Recorded IC50, per entry:
[
  {
    "MOLECULE": "O=C(CC1CCN(C(=O)c2cn[nH]c2)CC1)N1CCC([C@H]2c3ncc(Br)cc3CCc3cc(Cl)cc(Br)c32)CC1 [Compound 31.0-B]",
    "STUDY_TARGET": "farnesyl protein transferase",
    "MEASUREMENT": 3
  },
  {
    "MOLECULE": "O=C1N[C@H](C(=O)N2CCC(CC(=O)N3CCC([C@H]4c5ncc(Br)cc5CCc5cc(Cl)cc(Br)c54)CC3)CC2)CO1 [Compound 28.0-B]",
    "STUDY_TARGET": "farnesyl protein transferase",
    "MEASUREMENT": 2.3
  },
  {
    "MOLECULE": "O=C(CC1CCN(C(=O)c2ccc(O)nc2)CC1)N1CCC([C@H]2c3ncc(Br)cc3CCc3cc(Cl)cc(Br)c32)CC1 [Compound 47.0-B]",
    "STUDY_TARGET": "farnesyl protein transferase",
    "MEASUREMENT": 2.9
  }
]

a. O=C(CC1CCN(C(=O)[C@@H]2CSCN2)CC1)N1CCC([C@H]2c3ncc(Br)cc3CCc3cc(Cl)cc(Br)c32)CC1 [Compound 80.0-B]
b. CS(=O)(=O)n1cccc1C(=O)N1CCC(CC(=O)N2CCC([C@H]3c4ncc(Br)cc4CCc4cc(Cl)cc(Br)c43)CC2)CC1 [Compound 43.0-B]
[Q] Of a and b , whose reported IC50 is the larger number? Indicate your choice by writing its label.
[A] b
(b: 3.8 nM, a: 2.6 nM)
